Measured growth activity, negative = inhibition values are reported for all entries that follow.
- ASSAY PROCEDURE: blockers of Clostridium difficile growth – HTS, primary screen (AID 1259249);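 further: 0% = DMSO wells and -100% = levofloxacin 16 µg/mL wells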
- ASSAY CONDITIONS: Clostridium difficile clinical isolate growth, OD600, 24 h; active compounds read low; screened at 16 µg/mL (by protocol)
The whole screen tested about 86,000 compounds, of which about 220 (0.26%) were called active. The sample as a whole holds a higher share of actives than the screen did.
METRIC NAME: growth activity, negative = inhibition (%)

1. COc1ccc2c3c([nH]c2c1)[C@@H](CO)N(Cc1nccs1)CC31CCN(C(=O)C2CCCC2)CC1    1.43
2. CO[C@H]1CN(C)C(=O)c2cc(NS(=O)(=O)c3ccccc3C)ccc2OC[C@@H](C)NC[C@@H]1C    -1.27
3. C/C=C/c1ccccc1[C@H]1[C@@H](C#N)N(C(C)=O)[C@@H]1CO    -2.31

* * *

- ASSAY PROCEDURE: blockers of Clostridium difficile growth – HTS, primary screen (AID 1259249);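 further: 0% = DMSO wells and -100% = levofloxacin 16 µg/mL wells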
- ASSAY CONDITIONS: Clostridium difficile clinical isolate growth, OD600, 24 h; active compounds read low; screened at 16 µg/mL (by protocol)
In all, about 86,000 compounds went through this assay and about 220 (0.26%) were called active. The list comes from a sample in which actives are over-represented; it also holds close analogues and randomly drawn compounds.
METRIC NAME: growth activity, negative = inhibition (%)

1) C[C@@H]1CCCCO[C@H](CN(C)C(=O)NC2CCCCC2)[C@H](C)CN([C@H](C)CO)C(=O)c2cc(NC(=O)c3ccncc3)ccc2O1    -3.74
2) CCCc1cn(CC[C@@H]2CC[C@@H](NC(=O)C3CC3)[C@H](CO)O2)nn1    -2.37
3) CN1c2ccc(-c3ccccc3F)cc2[C@H]2[C@H](CCN2C(=O)Nc2cc(F)ccc2F)[C@H]1CO    38.2
4) CCS(=O)(=O)N1CC(=O)N2[C@H](CO)[C@@H](c3ccc(C#Cc4cccc(F)c4)cc3)[C@@H]2C1    -11.9
5) C[C@H](O)C#Cc1cnc2c(c1)C(=O)N([C@H](C)CO)C[C@@H](C)[C@@H](CN(C)C(=O)Nc1ccc(C(F)(F)F)cc1)O2    4.02
6) O=C(N[C@@H]1CC[C@@H](CC(=O)N2CCc3ccccc3C2)O[C@H]1CO)C1CC1    -3.47
7) CO[C@H]1CN(C)C(=O)c2ccc(NC(=O)Nc3ccc(F)cc3)cc2OC[C@@H](C)NC[C@H]1C    0.388
8) COc1ccc2c3c(n(C)c2c1)[C@H](CO)N(Cc1ccccc1)CC31CN(C(=O)c2ccccc2F)C1    20.3
9) CO[C@@H]1CN(C)C(=O)c2ccc(NS(=O)(=O)c3ccc(Cl)cc3)cc2OC[C@@H](C)N(C)C[C@@H]1C    -1.74
10) Cc1noc(C)c1NC(=O)N(C)C[C@H]1OCCCC[C@@H](C)Oc2ccc(NS(=O)(=O)c3ccc(Cl)cc3)cc2C(=O)N([C@@H](C)CO)C[C@H]1C    -9.03
11) COc1ccccc1CN1[C@H](CO)[C@@H](c2ccccc2)C12CN(C(=O)c1cnccn1)C2    5.54
12) CO[C@@H]1CN(C)C(=O)c2cc(NC(=O)C3CC3)ccc2OC[C@@H](C)N(C(=O)c2ccccc2F)C[C@@H]1C    -0.472
13) N#C[C@@H]1[C@H](c2ccc(C#CC3CCCCC3)cc2)[C@@H](CO)N1S(=O)(=O)c1ccccc1    -14.1
14) CCCNC(=O)N1CC2(CCN(Cc3ccc(F)cc3)CC2)c2c([nH]c3cc(OC)ccc23)[C@@H]1CO    -2.16
15) COCC(=O)N1[C@H](CO)[C@H](c2ccccc2C2=CCCCC2)[C@@H]1C#N    -0.454
16) CCS(=O)(=O)Nc1ccc2c(c1)C(=O)N(C)[C@@H]1CC[C@@H](CC(=O)NC)O[C@H]1CO2    3.49
17) COc1cc(C(=O)NC2CCN(C)CC2)ccc1Nc1ncc2c(n1)N(C1CCC(O)CC1)CCC(=O)N2C (stereo unspecified)    -0.491
18) CCC(=O)N1CC(=O)N2[C@@H](CO)[C@H](c3ccc(C#CC4CCCC4)cc3)[C@@H]2C1    -2.43
19) COCC(=O)N1CC[C@@H]2[C@@H](CO)Nc3ccc(-c4ccc(C(=O)N(C)C)cc4)cc3[C@@H]21    -7.52
20) O=C(NC1CCCC1)N1CC(=O)N2[C@H](C1)[C@H](c1ccc(/C=C/c3ccccc3)cc1)[C@@H]2CO    -1.1
21) COc1ccc2c3c(n(C)c2c1)[C@@H](CO)N(C)CC31CN(CC2CC2)C1    1.27
22) O=C(C[C@H]1C=C[C@H](NC(=O)Nc2cc(F)ccc2F)[C@@H](CO)O1)NCc1ccccn1    -1.08
23) CO[C@@H]1CN(C)C(=O)c2cc(NC(=O)C3CCC3)ccc2OC[C@H](C)N(Cc2ccccn2)C[C@H]1C    -0.0418
24) O=C(c1cccc(F)c1)N1CC[C@@H]2[C@H](CO)Nc3ccc(-c4ccccc4)cc3[C@@H]21    6.91
25) CO[C@H]1CN(C)C(=O)c2ccc(NC(=O)Nc3ccc4c(c3)OCO4)cc2OC[C@H](C)NC[C@H]1C    -11.3
26) CNC[C@H]1OCCCC[C@H](C)Oc2ccc(NC(=O)Nc3ccc(C(F)(F)F)cc3)cc2C(=O)N([C@H](C)CO)C[C@@H]1C    8.32
